# Tested on: Mus musculus
# PROTOCOL TEXT: Toxicity found after a single intramuscular injection in mice
# EXPERIMENTAL PARAMETERS: in vivo, im
MEASURE NAME: Toxicity

Previously resolved entries follow.
COc1cc2c(c3c1OCO3)-c1ccc(OC)c(=O)cc1[C@@H](NC(C)=O)CC2 ... > 167 µM/kg
COc1cc2c(c(O)c1O)-c1ccc(OC)c(=O)cc1[C@@H](NC(C)=O)CC2 ... > 450 µM/kg
COc1cc(C(=O)N[C@H]2CCc3cc(OC)c(OC)c(OC)c3-c3ccc(OC)c(=O)cc32)cc(OC)c1OC ... > 180 µM/kg

Q) State its Toxicity: `COc1c(O)c(O)cc2c1-c1ccc(OC)c(=O)cc1[C@@H](NC(C)=O)CC2`
A) > 450 µM/kg
